Listing of entries alongside the reported shrunken log2 fold change.
Tested on: Escherichia coli TOP10
Assay notes: shrunken log2 fold change of peptide-encoding DNA abundance (4.5 h post-induction vs induction); higher = less antimicrobial activity (less host growth inhibition)
Condition set: time post-induction: 4.5 h; library: site-saturation at positions 5, 18, 19, 20

Consider the worked cases shown below.
>>> print(df.to_string())
          polymer_sequence            measured_metric  result
0  RRIRPRPPRLPRPRPRPYFLPRP  shrunken log2 fold change  -0.614
1  RRIRPRPPRLPRPRPRPGFIPRP  shrunken log2 fold change  -0.221
2  RRIRIRPPRLPRPRPRPHGKPRP  shrunken log2 fold change  -0.326
3  RRIRCRPPRLPRPRPRPSPPPRP  shrunken log2 fold change   0.252
4  RRIRMRPPRLPRPRPRPYEIPRP  shrunken log2 fold change  0.0237

Return reported shrunken log2 fold change for target or system Escherichia coli TOP10, item RRIRERPPRLPRPRPRPMHNPRP . -0.437

Return reported shrunken log2 fold change for target or system Escherichia coli TOP10, item RRIRYRPPRLPRPRPRPKKQPRP . -0.00353

====

Listing of entries alongside the reported shrunken log2 fold change.
System: Escherichia coli TOP10
Assay notes: shrunken log2 fold change of peptide-encoding DNA abundance (4.5 h post-induction vs induction); higher = less antimicrobial activity (less host growth inhibition)
Condition set: time post-induction: 4.5 h; library: site-saturation at positions 5, 18, 19, 20

In [3]: df
Out[3]:
          polymer_sequence  result
0  RRIRMRPPRLPRPRPRPPNPPRP   0.822
1  RRIRIRPPRLPRPRPRPAMMPRP  -0.105
2  RRIRCRPPRLPRPRPRPVNTPRP  -0.259
3  RRIRTRPPRLPRPRPRPCAEPRP   -0.11

Query sequence follows.
Dear colleague, please send me the reported shrunken log2 fold change for RRIRARPPRLPRPRPRPNMSPRP when you can. 0.12

====

Tested on: Escherichia coli TOP10
Assay notes: shrunken log2 fold change of peptide-encoding DNA abundance (4.5 h post-induction vs induction); higher = less antimicrobial activity (less host growth inhibition)
Condition set: time post-induction: 4.5 h; library: site-saturation at positions 5, 18, 19, 20
Listing of entries alongside the reported shrunken log2 fold change.
Answer with a number only.

Consider the worked cases shown below.
          polymer_sequence  readout_number
0  RRIRSRPPRLPRPRPRPNLKPRP           0.087
1  RRIRFRPPRLPRPRPRPQPCPRP           0.078
2  RRIRFRPPRLPRPRPRPENYPRP          0.0219
3  RRIRFRPPRLPRPRPRPIENPRP          -0.193
4  RRIRWRPPRLPRPRPRPPALPRP           0.433

Dear colleague, please send me the reported shrunken log2 fold change for RRIRIRPPRLPRPRPRPTHFPRP when you can. -0.0417

Dear colleague, please send me the reported shrunken log2 fold change for RRIRVRPPRLPRPRPRPEFMPRP when you can. -0.0942

====

Listing of entries alongside the reported shrunken log2 fold change.
Test system: Escherichia coli TOP10;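 note: peptides expressed intracellularly from a pBAD plasmid library in pooled LB shake-flask culture, induced with 0.3% L-arabinose, DNA abundance read by NGS, three biological replicates, DESeq2 with apeglm shrinkage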
Assay notes: shrunken log2 fold change of peptide-encoding DNA abundance (4.5 h post-induction vs induction); higher = less antimicrobial activity (less host growth inhibition)
Condition set: time post-induction: 4.5 h; library: site-saturation at positions 5, 18, 19, 20
Answer with a number only.

In [3]: df
Out[3]:
          polymer_sequence  readout_number
0  RRIRTRPPRLPRPRPRPEILPRP          0.0249
1  RRIRSRPPRLPRPRPRPRWFPRP          0.0783

Dear colleague, please send me the reported shrunken log2 fold change for RRIRRRPPRLPRPRPRPWDMPRP when you can. 0.0681
